# MEASUREMENT_DESCRIPTION: self-splicing fitness, log relative to wild type (ln ratio); higher = more splicing; Tetrahymena group I intron in knt gene, E. coli kanamycin selection, DiMSum; sequences stand for … in CUCUCU…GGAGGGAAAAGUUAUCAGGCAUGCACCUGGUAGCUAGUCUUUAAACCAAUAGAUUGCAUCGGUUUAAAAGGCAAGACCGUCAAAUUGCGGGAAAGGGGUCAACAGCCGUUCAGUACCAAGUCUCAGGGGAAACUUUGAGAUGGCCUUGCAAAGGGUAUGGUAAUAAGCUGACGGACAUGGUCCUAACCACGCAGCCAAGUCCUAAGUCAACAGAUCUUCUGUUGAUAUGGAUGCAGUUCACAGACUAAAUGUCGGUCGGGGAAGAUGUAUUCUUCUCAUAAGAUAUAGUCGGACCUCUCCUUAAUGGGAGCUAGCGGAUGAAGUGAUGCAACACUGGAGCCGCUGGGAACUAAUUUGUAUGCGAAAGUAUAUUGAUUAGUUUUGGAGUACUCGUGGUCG;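 also: selection with 25 µg/mL kanamycin versus none on LB agar overnight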
# TEST_CONTEXT: 37 °C
Give label 1 when the value for self-splicing fitness (ln) is at least -0.6. Give label 0 when it is less.

Reference set, count: 5
UUCGAGCAAUAUUACGUGCG; label 0
GGUAAGCAAUAUUACGACGU; label 1
CGCCAGCAAUAUUACGUGUC; label 0
AGCUAGCAAUAUUACGCCCG; label 1
UAGUAGCAAUAUUACGGCCG; label 1

Query: Is self-splicing fitness (ln) for AGUGAGCAAUAUUACGGGGA at or above -0.6?
Response: label 0

Query: Is self-splicing fitness (ln) for CAUCAGCAAUAUUACGUACA at or above -0.6?
Response: label 0

Query: Is self-splicing fitness (ln) for AUCUAGCAAUAUUACGCACA at or above -0.6?
Response: label 1

Query: Is self-splicing fitness (ln) for CCUUAGCAAUAUUACGGACU at or above -0.6?
Response: label 0

Query: Is self-splicing fitness (ln) for CAACAGCAAUAUUACGUGAA at or above -0.6?
Response: label 0

Query: Is self-splicing fitness (ln) for UGUUAGCAAUAUUACGGGCC at or above -0.6?
Response: label 0

Query: Is self-splicing fitness (ln) for GAGAAGCAAUAUUACGAUUG at or above -0.6?
Response: label 0

Query: Is self-splicing fitness (ln) for CAGAAGCAAUAUUACGUUCA at or above -0.6?
Response: label 0

Query: Is self-splicing fitness (ln) for AGAAAGCAAUAUUACGCACC at or above -0.6?
Response: label 1

Query: Is self-splicing fitness (ln) for CCCGAGCAAUAUUACGCACU at or above -0.6?
Response: label 0

Query: Is self-splicing fitness (ln) for GCCUAGCAAUAUUACGCACC at or above -0.6?
Response: label 1

Query: Is self-splicing fitness (ln) for AGAGAGCAAUAUUACGAUAU at or above -0.6?
Response: label 0

Query: Is self-splicing fitness (ln) for AUAGAGCAAUAUUACGCGGU at or above -0.6?
Response: label 0

Query: Is self-splicing fitness (ln) for CCGAAGCAAUAUUACGGUCG at or above -0.6?
Response: label 1

Query: Is self-splicing fitness (ln) for CGGCAGCAAUAUUACGAGGC at or above -0.6?
Response: label 0

Query: Is self-splicing fitness (ln) for GAAAAGCAAUAUUACGCCAG at or above -0.6?
Response: label 0

Query: Is self-splicing fitness (ln) for CCCCAGCAAUAUUACGUUCC at or above -0.6?
Response: label 0

Query: Is self-splicing fitness (ln) for CUGCAGCAAUAUUACGAAUG at or above -0.6?
Response: label 1

Query: Is self-splicing fitness (ln) for UGUUAGCAAUAUUACGCACA at or above -0.6?
Response: label 1
